The following binders are listed with their measured log10(Kd) values.
target: T1, Tumor Necrosis Factor-alpha (UniProt P01375 77-233); assay: SPR (Biacore A100), TNF-α captured, equilibrium response over a concentration series
T1 construct: Immobilised on pipette tips or SPR chips (amine coupling or biotin capture); also called TNF-α; TNF-alpha
T1 sequence (P01375 77-233 limits assumed): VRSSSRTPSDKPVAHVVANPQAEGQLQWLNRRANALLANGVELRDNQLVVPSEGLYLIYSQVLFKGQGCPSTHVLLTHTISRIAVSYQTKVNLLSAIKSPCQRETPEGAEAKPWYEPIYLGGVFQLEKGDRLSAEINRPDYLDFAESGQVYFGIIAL
log10 Kd, µM

FERDYLKMPWSFLQSRQGSC [TNF1 P5Y+M7K double mutant] = 1.43
FERDYLMMPWKFLQSRQGSC [TNF1 P5Y+S11K double mutant] = 1.38
FERSYLMMPWKFLQSRQGSC (also called D4S + P5Y + S1IK (so in the source)) [TNF1 D4S+P5Y+S11K triple mutant] = 0.85
FERSYLKMPWSFLQSRQGSC [TNF1 D4S+P5Y+M7K triple mutant] = 1.15
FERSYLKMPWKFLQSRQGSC [TNF1-opt (D4S+P5Y+M7K+S11K quadruple mutant)] = 0.20

Attention now shifts to the item below.
Noted for FERYPLKMPWSFLQSRQGSC [TNF1 D4Y+M7K double mutant] : its log10(Kd) reads 1.23
